The reported measurements were obtained from patent US5407918A.

tested on: S. aureus 209P JC-1; experiment: MIC, agar plate dilution method; assay type: cell-based; conditions: Staphylococcus aureus; S. aureus 209P JC-1; 37° C., 20 hours; read-out: Antimicrobial activity (MIC)
endpoint_name: MIC (µg/mL)
Number only, in µg/mL; omit the unit.

Recorded MIC, per entry:
| compound | target_system | reported_measurement |
| --- | --- | --- |
| CCCO[C@]1(C)C[C@H](O[C@H]2[C@H](N(C)C)[C@@H](O)[C@H](O[C@H]3[C@@H](CC=O)C[C@@H](C)[C@@H](O)/C=C/C=C/C[C@@H](C)OC(=O)C[C@@H](O)[C@@H]3OC)O[C@@H]2C)O[C@@H](C)[C@@H]1OCCC(C)C [(15)] | S. aureus 209P JC-1 | 0.2 |
| CO[C@@H]1[C@@H](O[C@@H]2O[C@H](C)[C@@H](O[C@H]3C[C@@](C)(OC)[C@@H](OCCC(C)C)[C@H](C)O3)[C@H](N(C)C)[C@H]2O)[C@@H](CC=O)C[C@@H](C)[C@@H](O)/C=C/C=C/C[C@@H](C)OC(=O)C[C@H]1O [(12)] | S. aureus 209P JC-1 | 0.1 |
| CCC(=O)O[C@@H]1CC(=O)O[C@H](C)C/C=C/C=C/[C@H](O)[C@H](C)C[C@H](CC=O)[C@H](O[C@@H]2O[C@H](C)[C@@H](O[C@H]3C[C@@](C)(OC)[C@@H](OCCC(C)C)[C@H](C)O3)[C@H](N(C)C)[C@H]2O)[C@H]1OC [(3)] | S. aureus 209P JC-1 | 0.2 |
| CO[C@@H]1[C@@H](O[C@@H]2O[C@H](C)[C@@H](O[C@H]3C[C@@](C)(OC)[C@@H](OCc4ccccc4)[C@H](C)O3)[C@H](N(C)C)[C@H]2O)[C@@H](CC=O)C[C@@H](C)[C@@H](O)/C=C/C=C/C[C@@H](C)OC(=O)C[C@H]1O [(16)] | S. aureus 209P JC-1 | 0.1 |
| CCCCCO[C@H]1[C@H](C)O[C@@H](O[C@H]2[C@H](N(C)C)[C@@H](O)[C@H](O[C@H]3[C@@H](CC=O)C[C@@H](C)[C@@H](O)/C=C/C=C/C[C@@H](C)OC(=O)C[C@@H](O)[C@@H]3OC)O[C@@H]2C)C[C@@]1(C)OC [(11)] | S. aureus 209P JC-1 | 0.1 |

Looking up CCCCCCO[C@H]1[C@H](C)O[C@@H](O[C@H]2[C@H](N(C)C)[C@@H](O)[C@H](O[C@H]3[C@@H](CC=O)C[C@@H](C)[C@@H](O)/C=C/C=C/C[C@@H](C)OC(=O)C[C@@H](OC(=O)CC)[C@@H]3OC)O[C@@H]2C)C[C@@]1(C)OC [(5)] , I see its MIC listed as 0.39

MIC in this record for CCO[C@]1(C)C[C@H](O[C@H]2[C@H](N(C)C)[C@@H](O)[C@H](O[C@H]3[C@@H](CC=O)C[C@@H](C)[C@@H](O)/C=C/C=C/C[C@@H](C)OC(=O)C[C@@H](O)[C@@H]3OC)O[C@@H]2C)O[C@@H](C)[C@@H]1OCCC(C)C [(14)] : 0.2

Form field MIC, entry CCCCO[C@H]1[C@H](C)O[C@@H](O[C@H]2[C@H](N(C)C)[C@@H](O)[C@H](O[C@H]3[C@@H](CC=O)C[C@@H](C)[C@@H](O)/C=C/C=C/C[C@@H](C)OC(=O)C[C@@H](OC(=O)CC)[C@@H]3OC)O[C@@H]2C)C[C@@]1(C)OC [(2)] : 0.39
